biological target: PIK3R2(SH2dom.N-term.) (Homo sapiens, UniProt O00459); construct: SH2dom.N-term. denotes SH2 domain closest to N-terminus of protein; made in house; host or cells: HEK293 (transient transfection, unpurified extract); assay: biochemical; type: binding; conditions: primary screen, 10 μM; read-out: percent of DMSO vehicle control
READOUT: remaining activity at 10 µM (%)
State the answer as a number, implicitly in %.

Previously resolved entries follow.
| CHEMICAL_STRUCTURE | UNIT_ANNOTATION | remaining activity at 10 µM |
| --- | --- | --- |
| CC(C)(C)[C@H](NC(=O)/C=C/c1ccc(OP(=O)(O)O)cc1)C(=O)N1CCC[C@H]1C(=O)N(c1ccccc1)c1ccc(I)cc1 | % | 88.4 |
| C/C(=C\C(=O)N[C@H](C(=O)N1CCC[C@H]1C(=O)N(c1ccccc1)c1ccc(I)cc1)C(C)(C)C)c1ccc(OP(=O)(O)O)cc1 | % | 48.2 |
| O=C(CCl)Nc1cccc(CNC(=O)[C@H](Cc2ccc(OP(=O)(O)O)cc2)NC(=O)Cc2ccc(F)cc2)c1 | % | 101 |

From here, focus on the item given below.
[in] Looking for the measured remaining activity at 10 µM of `O=C(COc1ccc2cc(C(=O)Nc3ccccc3)ccc2c1)NCc1ccc(OP(=O)(O)O)c(OP(=O)(O)O)c1` , can you help?
[out] 97.2

---

Target: PIK3R2(SH2dom.C-term.) (Homo sapiens)
Construct: SH2dom.C-term. denotes SH2 domain closest to C-terminus of protein; made in house; host or cells: HEK293 (transient transfection, unpurified extract)
Sequence (O00459 622-716 limits assumed): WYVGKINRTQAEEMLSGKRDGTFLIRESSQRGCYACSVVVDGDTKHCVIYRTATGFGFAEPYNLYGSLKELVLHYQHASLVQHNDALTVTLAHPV
Assay: biochemical
Type: binding
Conditions: dose-response; read-out: KD
Entries and their measured Kd follow.
Express the result in nM but write the number alone.

| COMPOUND | ASSAY_TARGET | UNIT_ANNOTATION | Kd |
| --- | --- | --- | --- |
| CC(C)(C)[C@H](NC(=O)/C=C/c1ccc(OP(=O)(O)O)cc1)C(=O)N1CCC[C@H]1C(=O)N(c1ccccc1)c1ccc(I)cc1 [STAT6-IN-3] | PIK3R2(SH2dom.C-term.) (Homo sapiens) | nM | 490 |

Here is the next item to consider.
[in] What value of Kd has been recorded for this entry: C/C(=C\C(=O)N[C@H](C(=O)N1CCC[C@H]1C(=O)N(c1ccccc1)c1ccc(I)cc1)C(C)(C)C)c1ccc(OP(=O)(O)O)cc1 [STAT6-IN-1]
[out] 1000

---

target: PIK3R2(SH2dom.C-term.) (Homo sapiens); construct: SH2dom.C-term. denotes SH2 domain closest to C-terminus of protein; made in house; host or cells: HEK293 (transient transfection, unpurified extract); test: biochemical; format: binding; conditions: read-out: percent of DMSO vehicle control
Non-standard residues stand in square brackets, D forms with d. Residues, ends and D or L forms follow the SMILES beside them. *: point of attachment. pY = N[C@@H](Cc1ccc(OP(=O)(O)O)cc1)C(=O)O; Caffeoyl = O=C(/C=C/c1ccc(O)c(O)c1)*
READOUT: remaining activity at 10 µM (%)
Your answer is read as %, so omit the unit and give the number.

| MOLECULE | remaining activity at 10 µM (%) |
| --- | --- |
| CC[C@H](C)[C@H](NC(=O)[C@H](CCC(=O)O)NC(=O)[C@H](CCC(=O)O)NC(=O)[C@H](Cc1ccc(OP(=O)(O)O)cc1)NC(=O)/C=C/c1ccc(O)c(O)c1)C(=O)N[C@@H](CCC(=O)O)C(=O)O [Caffeic acid-pYEEIE] (Caffeoyl-[pY]EEIE-OH) | 0.3 |
| CC(=O)N1CC[C@H]2CC[C@@H](C(=O)N[C@@H](CCC(N)=O)C(=O)NC(c3ccccc3)c3ccccc3)N2C(=O)[C@@H](NC(=O)c2cc3cc(C(F)(F)P(=O)(O)O)ccc3[nH]2)C1 | 120 |
| CC(=O)N[C@@H](Cc1ccc(CP(=O)(O)O)cc1)C(=O)NC1(C(=O)N[C@@H](CC(N)=O)C(=O)NCCCc2c(O)ccc3ccccc23)CCCCC1 | 0.4 |

Now for a further molecule.
[in] GET /values?readout=remaining activity at 10 µM&item= NC(=O)CC[C@H](NC(=O)[C@@H]1CC[C@@H]2CCN(C(=O)CCCCCC#Cc3cccc4c3CN(C3CCC(=O)NC3=O)C4=O)C[C@H](NC(=O)c3cc4cc(C(F)(F)P(=O)(O)O)ccc4[nH]3)C(=O)N21)C(=O)NC(c1ccccc1)c1ccccc1 (stereo partly shown)
[out] 18.5

---

target: PTPN6(SH2dom.C-term.) (Homo sapiens); construct: SH2dom.C-term. denotes SH2 domain closest to C-terminus of protein; made in house; host or cells: HEK293 (transient transfection, unpurified extract); experiment: biochemical; assay type: binding; details: read-out: percent of DMSO vehicle control
Sequence (P29350 110-213 limits assumed): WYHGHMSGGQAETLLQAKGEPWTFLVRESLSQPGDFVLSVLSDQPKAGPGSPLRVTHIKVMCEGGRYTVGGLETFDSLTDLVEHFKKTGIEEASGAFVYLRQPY
Non-standard residues stand in square brackets, D forms with d. Residues, ends and D or L forms follow the SMILES beside them. *: point of attachment. pY = N[C@@H](Cc1ccc(OP(=O)(O)O)cc1)C(=O)O; Caffeoyl = O=C(/C=C/c1ccc(O)c(O)c1)*
We begin with a simple list: items and their reported remaining activity at 10 µM.
Answer in %, number only, no unit symbol.

| COMPOUND | remaining activity at 10 µM [%] |
| --- | --- |
| CC(=O)N1CC[C@H]2CC[C@@H](C(=O)N[C@@H](CCC(N)=O)C(=O)NC(c3ccccc3)c3ccccc3)N2C(=O)[C@@H](NC(=O)c2cc3cc(C(F)(F)P(=O)(O)O)ccc3[nH]2)C1 [SI-109] | 119 |
| NC(=O)CC[C@H](NC(=O)[C@@H]1CC[C@@H]2CCN(C(=O)CCCCCC#Cc3cccc4c3CN(C3CCC(=O)NC3=O)C4=O)C[C@H](NC(=O)c3cc4cc(C(F)(F)P(=O)(O)O)ccc4[nH]3)C(=O)N21)C(=O)NC(c1ccccc1)c1ccccc1 (stereo partly shown) [SD-36] | 108 |
| CC(=O)N[C@@H](Cc1ccc(CP(=O)(O)O)cc1)C(=O)NC1(C(=O)N[C@@H](CC(N)=O)C(=O)NCCCc2c(O)ccc3ccccc23)CCCCC1 [CGP78850] | 131 |

[in] I'd like to know its remaining activity at 10 µM. The compound in question is CC[C@H](C)[C@H](NC(=O)[C@H](CCC(=O)O)NC(=O)[C@H](CCC(=O)O)NC(=O)[C@H](Cc1ccc(OP(=O)(O)O)cc1)NC(=O)/C=C/c1ccc(O)c(O)c1)C(=O)N[C@@H](CCC(=O)O)C(=O)O [Caffeic acid-pYEEIE] (Caffeoyl-[pY]EEIE-OH)
[out] 114

---

target: STAP2 (Homo sapiens); construct: made in house; host or cells: HEK293 (transient transfection), unpurified extract; assay: biochemical; format: binding; conditions: dose-response; read-out: KD
Sequence (Q9UGK3 whole entry): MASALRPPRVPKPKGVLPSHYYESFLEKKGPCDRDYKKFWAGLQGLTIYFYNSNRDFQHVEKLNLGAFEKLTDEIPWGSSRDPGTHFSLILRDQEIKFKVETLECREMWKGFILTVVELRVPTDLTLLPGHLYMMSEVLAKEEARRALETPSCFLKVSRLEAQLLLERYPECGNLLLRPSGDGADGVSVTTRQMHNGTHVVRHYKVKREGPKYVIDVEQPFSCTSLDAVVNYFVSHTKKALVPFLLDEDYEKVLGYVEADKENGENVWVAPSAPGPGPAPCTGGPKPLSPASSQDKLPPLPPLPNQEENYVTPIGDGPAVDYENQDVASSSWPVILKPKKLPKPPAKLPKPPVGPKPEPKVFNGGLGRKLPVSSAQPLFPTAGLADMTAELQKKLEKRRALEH
READOUT: pKd
Field pKd (float): negative decimal logarithm of the concentration in molar.

[in] API: value(readout=pKd, system=STAP2 (Homo sapiens)) for record `C/C(=C\C(=O)N[C@H](C(=O)N1CCC[C@H]1C(=O)N(c1ccccc1)c1ccc(I)cc1)C(C)(C)C)c1ccc(OP(=O)(O)O)cc1`
[out] 4.79

---

Entries and their percent of DMSO vehicle control at 10 µM
target: STAT3(N567K)-nonphosphorylated (Homo sapiens, UniProt P40763, N567K); construct: made in house; host or cells: HEK293 (transient transfection), unpurified extract, dephosphorylated by endogenous phosphatases; assay: biochemical; assay type: binding; conditions: read-out: percent of DMSO vehicle control
Sequence (P40763 whole entry N567K): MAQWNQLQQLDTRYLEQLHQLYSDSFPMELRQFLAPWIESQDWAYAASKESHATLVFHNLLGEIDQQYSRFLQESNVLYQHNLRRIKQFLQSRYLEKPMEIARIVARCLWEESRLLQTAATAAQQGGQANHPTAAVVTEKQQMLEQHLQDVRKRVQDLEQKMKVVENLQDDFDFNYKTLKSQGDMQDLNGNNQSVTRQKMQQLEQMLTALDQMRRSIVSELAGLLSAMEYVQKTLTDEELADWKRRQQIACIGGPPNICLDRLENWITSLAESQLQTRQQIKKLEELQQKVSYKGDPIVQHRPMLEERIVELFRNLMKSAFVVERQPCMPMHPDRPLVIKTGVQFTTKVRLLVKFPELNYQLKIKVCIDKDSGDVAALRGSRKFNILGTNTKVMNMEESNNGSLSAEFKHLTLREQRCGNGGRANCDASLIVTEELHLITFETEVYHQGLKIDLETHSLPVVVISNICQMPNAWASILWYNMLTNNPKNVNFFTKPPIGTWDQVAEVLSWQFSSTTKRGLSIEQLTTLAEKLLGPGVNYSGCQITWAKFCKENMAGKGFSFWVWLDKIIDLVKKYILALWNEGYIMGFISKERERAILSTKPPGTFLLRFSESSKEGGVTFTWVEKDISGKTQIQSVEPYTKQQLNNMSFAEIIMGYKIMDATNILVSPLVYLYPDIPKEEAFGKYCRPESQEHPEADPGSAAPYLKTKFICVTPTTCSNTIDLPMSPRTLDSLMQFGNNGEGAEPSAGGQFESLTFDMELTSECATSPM
Entry rule: numbers only, all in %.

[in] Would you mind telling me what percent of DMSO vehicle control at 10 µM value was observed for `CC(=O)N[C@@H](Cc1ccc(CP(=O)(O)O)cc1)C(=O)NC1(C(=O)N[C@@H](CC(N)=O)C(=O)NCCCc2c(O)ccc3ccccc23)CCCCC1` ?
[out] 78.3

---

Biological target: STAT6 (Homo sapiens, UniProt P42226)
Construct: made in house; host or cells: HEK293 (transient transfection), unpurified extract
Sequence (P42226 1-847): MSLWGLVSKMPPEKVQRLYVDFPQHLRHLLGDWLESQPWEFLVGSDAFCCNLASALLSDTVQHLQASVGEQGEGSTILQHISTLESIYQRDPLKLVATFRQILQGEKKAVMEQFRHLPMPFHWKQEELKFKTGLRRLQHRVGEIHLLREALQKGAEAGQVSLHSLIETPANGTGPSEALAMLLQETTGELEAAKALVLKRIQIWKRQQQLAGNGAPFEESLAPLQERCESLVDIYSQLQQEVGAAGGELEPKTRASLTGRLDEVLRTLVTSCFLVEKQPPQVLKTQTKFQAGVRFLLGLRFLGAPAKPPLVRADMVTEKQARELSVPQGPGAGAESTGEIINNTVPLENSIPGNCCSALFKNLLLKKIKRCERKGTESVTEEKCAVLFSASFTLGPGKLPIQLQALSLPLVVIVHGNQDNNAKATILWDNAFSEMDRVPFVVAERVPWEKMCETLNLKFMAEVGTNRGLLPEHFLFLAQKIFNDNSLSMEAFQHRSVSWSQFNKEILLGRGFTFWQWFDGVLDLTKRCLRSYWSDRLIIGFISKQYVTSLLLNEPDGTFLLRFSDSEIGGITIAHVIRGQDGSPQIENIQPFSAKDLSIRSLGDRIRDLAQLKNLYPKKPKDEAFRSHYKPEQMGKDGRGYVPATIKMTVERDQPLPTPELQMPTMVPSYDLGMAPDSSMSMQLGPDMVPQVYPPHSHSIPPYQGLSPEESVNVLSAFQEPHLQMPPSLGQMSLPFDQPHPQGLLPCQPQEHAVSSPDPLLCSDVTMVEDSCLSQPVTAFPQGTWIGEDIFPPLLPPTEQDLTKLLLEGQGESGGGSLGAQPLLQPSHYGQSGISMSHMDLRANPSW
Experiment: biochemical
Type: binding
Details: primary screen, 10 μM; read-out: percent of DMSO vehicle control
# remaining activity at 10 µM values compiled below
# number only, unit % dropped from output

[in] Look up remaining activity at 10 µM: `CC(C)(C)[C@H](NC(=O)/C=C/c1ccc(OP(=O)(O)O)cc1)C(=O)N1CCC[C@H]1C(=O)N(c1ccccc1)c1ccc(I)cc1`
[out] 0

[in] Then this compound: `O=C(CCl)Nc1cccc(CNC(=O)[C@H](Cc2ccc(OP(=O)(O)O)cc2)NC(=O)Cc2ccc(F)cc2)c1`
[out] 37.2

[in] Same question, `C/C(=C\C(=O)N[C@H](C(=O)N1CCC[C@H]1C(=O)N(c1ccccc1)c1ccc(I)cc1)C(C)(C)C)c1ccc(OP(=O)(O)O)cc1` this time
[out] 0

[in] What about this compound? `O=C(COc1ccc2cc(C(=O)Nc3ccccc3)ccc2c1)NCc1ccc(OP(=O)(O)O)c(OP(=O)(O)O)c1`
[out] 18.2
